Biological target: G9a (Homo sapiens, UniProt Q96KQ7)
Test: G9a AlphaLISA enzymatic activity assay
Type: biochemical
Conditions: 0.15 nM G9a, 15 uM S-adenosyl-methionine, 100 nM biotinylated histone 3 peptide (1-21), 1 hour at room temperature; read-out: G9a in (uM) (IC50, concentration that produced 50% inhibition)
Where a name gives a salt, the structure may show the parent alone.
Measured IC50 accompanies every entry in the list below.

Query: Which IC50 is reported with G9a (Homo sapiens, UniProt Q96KQ7) for this entry: COc1cc2c3c(c(N(C)c4ccccc4)nc2cc1OCCCN1CCCC1)CCC3 [Example 69, trifluoroacetate] ?
Response: > 10 µM

Query: Provide value of IC50 for this record tested with G9a (Homo sapiens, UniProt Q96KQ7): COc1cc2c3c(c(NC4CCC4)nc2cc1OCCCN1CCCC1)CCC3 [Example 7, formate]
Response: 0.045 µM

Query: API: value(readout=IC50, system=G9a (Homo sapiens, UniProt Q96KQ7)) for record COc1cc2c3c(c(NC(C)C)nc2cc1OCCCN1CCC(C)(C)C1)CCC3 [Example 86, formate]
Response: > 10 µM

----------
Molecular target: G9a (Homo sapiens, UniProt Q96KQ7)
Assay: G9a AlphaLISA enzymatic activity assay
Type: biochemical
Conditions: 0.15 nM G9a, 15 uM S-adenosyl-methionine, 100 nM biotinylated histone 3 peptide (1-21), 1 hour at room temperature; read-out: G9a in (uM) (IC50, concentration that produced 50% inhibition)
Counter-ions that a name gives are not always drawn.
experimental_readout: log10 IC50 (log10 of the value in µM)
Please interpret these as log10 of IC50 where IC50 is in µM.

Query: Which log10 IC50 value belongs to COc1cc2c3c(c(NCC(C)C)nc2cc1OCCCN1CCCC1)CC(C)(C)C3 [Example 95, formate] ?
Response: -1.15

----------
Molecular target: UniProtKB Q96KQ7
Sequence (Q96KQ7 1-1210): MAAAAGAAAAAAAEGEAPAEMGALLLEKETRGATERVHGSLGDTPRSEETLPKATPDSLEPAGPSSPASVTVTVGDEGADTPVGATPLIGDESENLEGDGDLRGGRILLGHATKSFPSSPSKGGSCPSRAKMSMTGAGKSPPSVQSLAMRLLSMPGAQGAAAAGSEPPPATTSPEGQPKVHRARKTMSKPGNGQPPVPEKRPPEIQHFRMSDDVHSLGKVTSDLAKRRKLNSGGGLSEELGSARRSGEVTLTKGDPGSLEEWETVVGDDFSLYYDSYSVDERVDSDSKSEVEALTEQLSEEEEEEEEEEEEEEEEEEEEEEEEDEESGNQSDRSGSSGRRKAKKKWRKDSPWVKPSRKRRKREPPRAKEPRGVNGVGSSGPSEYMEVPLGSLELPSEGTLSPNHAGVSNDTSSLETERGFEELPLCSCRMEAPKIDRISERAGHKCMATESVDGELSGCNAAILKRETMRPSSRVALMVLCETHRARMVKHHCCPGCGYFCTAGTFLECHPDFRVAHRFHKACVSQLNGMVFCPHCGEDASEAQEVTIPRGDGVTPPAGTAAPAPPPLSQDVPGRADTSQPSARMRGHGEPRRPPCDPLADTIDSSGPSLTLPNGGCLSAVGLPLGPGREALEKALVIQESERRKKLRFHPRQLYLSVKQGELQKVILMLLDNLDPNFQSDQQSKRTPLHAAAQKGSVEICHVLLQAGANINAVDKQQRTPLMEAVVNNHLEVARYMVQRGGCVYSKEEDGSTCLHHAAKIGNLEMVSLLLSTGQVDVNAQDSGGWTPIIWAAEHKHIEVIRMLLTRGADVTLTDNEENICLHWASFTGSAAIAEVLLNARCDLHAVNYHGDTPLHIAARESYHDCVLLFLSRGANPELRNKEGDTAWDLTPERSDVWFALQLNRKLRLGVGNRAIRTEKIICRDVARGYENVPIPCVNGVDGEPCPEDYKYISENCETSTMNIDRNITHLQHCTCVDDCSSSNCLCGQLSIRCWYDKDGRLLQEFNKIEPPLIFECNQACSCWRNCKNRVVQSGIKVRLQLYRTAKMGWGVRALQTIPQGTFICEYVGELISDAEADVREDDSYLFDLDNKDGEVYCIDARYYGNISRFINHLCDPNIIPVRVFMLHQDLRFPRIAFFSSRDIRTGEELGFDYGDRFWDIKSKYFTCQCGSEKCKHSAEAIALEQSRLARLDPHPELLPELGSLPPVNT
Test: G9a AlphaLISA enzymatic activity assay
Assay type: biochemical
Settings: 0.15 nM G9a, 15 uM S-adenosyl-methionine, 100 nM biotinylated histone 3 peptide (1-21), 1 hour at room temperature; read-out: G9a in (uM) (IC50, concentration that produced 50% inhibition)
Where a name gives a salt, the structure may show the parent alone.
IC50 by entry:
# output: numeric value plus its unit

See these solved cases before continuing.
compound: COc1cc2c3c(c(NC4CCCC4)nc2cc1OCCCN1CCCC1)CCC3 [Example 8, trifluoroacetate]
IC50: 0.04 µM

compound: COc1cc2c3c(c(C)nc2cc1OCCCN1CCCC1)CCC(C)N3 (centres unmarked) [Example 31, trifluoroacetate]
IC50: 0.009 µM

compound: COc1cc2c3c(c(C4=CCCC4)nc2cc1OCCCN1CCCC1)CC(C)(C)N3
IC50: 0.009 µM

Query: Enter reported IC50 observed with UniProtKB Q96KQ7 for CNc1nc2cc(OCCCN3CCCC3)c(OC)cc2c2c1CCC(C)N2 (centres unmarked) [Example 29, formate]
Response: 0.009 µM

Query: Give IC50 (UniProtKB Q96KQ7) of the following compound: COc1ccc(CNc2nc3cc(OCCCN4CCCC4)c(OC)cc3c3c2CCC3)c(OC)c1 [Example 115, formate]
Response: 0.009 µM

----------
Molecular target: G9a (Homo sapiens)
Sequence (Q96KQ7 1-1210): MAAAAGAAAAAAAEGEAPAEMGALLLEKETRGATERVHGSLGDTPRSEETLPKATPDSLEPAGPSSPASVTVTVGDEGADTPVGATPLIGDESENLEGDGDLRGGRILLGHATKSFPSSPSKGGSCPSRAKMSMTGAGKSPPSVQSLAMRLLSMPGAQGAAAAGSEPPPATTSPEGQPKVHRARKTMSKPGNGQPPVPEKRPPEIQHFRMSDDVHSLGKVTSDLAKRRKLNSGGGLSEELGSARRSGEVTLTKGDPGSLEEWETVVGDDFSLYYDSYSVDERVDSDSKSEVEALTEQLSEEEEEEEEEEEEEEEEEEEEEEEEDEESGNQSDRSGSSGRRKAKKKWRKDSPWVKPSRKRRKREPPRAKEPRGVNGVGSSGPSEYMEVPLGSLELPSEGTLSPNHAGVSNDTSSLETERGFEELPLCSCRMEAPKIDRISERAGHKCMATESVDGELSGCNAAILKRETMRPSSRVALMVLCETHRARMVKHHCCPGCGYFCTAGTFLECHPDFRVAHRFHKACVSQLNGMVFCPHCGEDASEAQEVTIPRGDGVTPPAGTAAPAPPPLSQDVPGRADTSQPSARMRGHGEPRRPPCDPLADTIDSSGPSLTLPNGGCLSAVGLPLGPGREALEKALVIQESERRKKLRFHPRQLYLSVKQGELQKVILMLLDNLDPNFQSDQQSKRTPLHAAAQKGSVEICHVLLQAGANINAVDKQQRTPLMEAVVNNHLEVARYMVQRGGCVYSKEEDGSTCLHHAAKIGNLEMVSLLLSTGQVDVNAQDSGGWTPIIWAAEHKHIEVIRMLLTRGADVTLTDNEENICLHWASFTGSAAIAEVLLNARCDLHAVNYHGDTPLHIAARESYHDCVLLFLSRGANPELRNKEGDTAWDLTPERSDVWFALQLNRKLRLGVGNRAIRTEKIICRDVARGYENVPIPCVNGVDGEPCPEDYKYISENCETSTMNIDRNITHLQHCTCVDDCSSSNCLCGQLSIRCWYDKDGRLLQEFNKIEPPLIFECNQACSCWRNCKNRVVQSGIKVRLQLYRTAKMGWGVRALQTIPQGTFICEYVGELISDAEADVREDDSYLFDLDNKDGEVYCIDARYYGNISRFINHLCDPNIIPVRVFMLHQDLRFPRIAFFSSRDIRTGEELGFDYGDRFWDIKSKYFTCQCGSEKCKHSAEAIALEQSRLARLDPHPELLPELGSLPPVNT
Assay: G9a AlphaLISA enzymatic activity assay
Format: biochemical
Conditions: 0.15 nM G9a, 15 uM S-adenosyl-methionine, 100 nM biotinylated histone 3 peptide (1-21), 1 hour at room temperature; read-out: G9a in (uM) (IC50, concentration that produced 50% inhibition)
Structures can show the parent of a compound that is named as a salt.
experimental_readout: IC50 (µM)
The reply should be a number in µM, with the unit left off.

compound: COc1cc2c3c(c(N[C@H]4C[C@H](O)C4)nc2cc1OCCCN1CCCC1)CCC3 [Example 16]
IC50 (µM): 0.11

compound: COc1cc2c3c(c(NC4CCN(C(C)C)CC4)nc2cc1OCCCN1CCCC1)CCCC3 [Example 39, trifluoroacetate]
IC50 (µM): 3

compound: COc1cc2c3c(c(NCCC#N)nc2cc1OCCCN1CCCC1)CCC3 [Example 119, formate]
IC50 (µM): 0.11

Query: Provide the documented IC50 with G9a (Homo sapiens) as the system for COc1cc2c3c(c(N[C@H](C)C4CC4)nc2cc1OCCCN1CCCC1)CCC3 [Example 89, formate]
Response: 0.14

Query: Provide the documented IC50 with G9a (Homo sapiens) as the system for COc1cc2c3c(c(NCCC(F)(F)F)nc2cc1OCCCN1CCCC1)CCC3 [Example 66]
Response: 0.22

Query: Recall the recorded IC50 for COc1cc2nc(NC(C)C)c3c(c2cc1OCCCN1CCCC1)COC3 [Example 45] with G9a (Homo sapiens) and state it.
Response: 4.3

Query: For G9a (Homo sapiens), provide IC50 of COc1cc2nc(NC3CC3)c3c(c2cc1OCCCN1CCCC1)COC3 [Example 47] please.
Response: 3.1

Query: For the record CNc1nc2cc(OCCCN3CCCC3)c(OC)cc2c2c1CC(C)(C)C2 [Example 53, formate] , what value of IC50 is listed for G9a (Homo sapiens)?
Response: 0.043
